target: NRAS G12C (Homo sapiens (Human), UniProt P01111+P62937, G12C); assay: Ras-Raf (BRAF RBD) disruption / FRET / MOA assay, NRAS G12C; type: biochemical; conditions: read-out: IC50* NRAS G12C FRET data
Sequence (P01111 whole entry G12C, one chain of several): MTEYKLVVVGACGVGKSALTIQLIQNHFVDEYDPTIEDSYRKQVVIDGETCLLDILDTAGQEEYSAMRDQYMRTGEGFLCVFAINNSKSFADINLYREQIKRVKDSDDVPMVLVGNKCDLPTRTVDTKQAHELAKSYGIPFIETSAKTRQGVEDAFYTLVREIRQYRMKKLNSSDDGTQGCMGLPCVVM
MEASURED QUANTITY: IC50

C=CC(=O)N1CC[C@H](C(=O)N(C)[C@H](C(=O)N[C@@H]2C(=O)N3CCC[C@H](N3)C(=O)OCC(C)(C)Cc3c(-c4cncnc4)n(CC)c4ccc(cc34)-c3cccc(c3)[C@H]2O)C(C)C)C1    > 10 µM
C=CC(=O)N1C[C@@H]2C[C@H]1CN2C(=O)N(C)[C@H](C(=O)N[C@H]1Cc2nc(cs2)-c2ccc3c(c2)c(c(-c2cccnc2[C@H](C)OC)n3CC)CC(C)(C)COC(=O)[C@@H]2CCCN(N2)C1=O)C(C)C (atropisomer, axis not shown)    0.1 to 1 µM
C=CC(=O)N1CC[C@H](C(=O)N(C)[C@H](C(=O)N[C@H]2Cc3nc(ns3)-c3ccc4c(c3)c(c(-c3cccnc3[C@H](C)OC)n4CC)CC(C)(C)COC(=O)[C@@H]3CCCN(N3)C2=O)C(C)C)C1 (atropisomer, axis not shown)    1 to 10 µM
CCn1c(-c2cccnc2[C@H](C)OC)c2c3cc(ccc31)-c1cc(O)cc(c1)C[C@H](NC(=O)[C@H](C(C)C)N1CC[C@]3(CCN(C(=O)/C=C/CN(C)C)C3)C1=O)C(=O)N1CCC[C@H](N1)C(=O)OCC(C)(C)C2 (atropisomer, axis not shown)    < 0.01 µM

* * *

target: KRAS G12D (Homo sapiens (Human), UniProt P01116+P62937, G12D); assay: Ras-Raf (BRAF RBD) disruption / FRET / MOA assay, KRAS G12D; type: biochemical; settings: Ras-Raf disruption/FRET/MOA assay; class symbols; read-out: KRAS G12D FRET data IC50
Sequence (P01116-2 other isoform, or with tags, fused parts or gaps G12D): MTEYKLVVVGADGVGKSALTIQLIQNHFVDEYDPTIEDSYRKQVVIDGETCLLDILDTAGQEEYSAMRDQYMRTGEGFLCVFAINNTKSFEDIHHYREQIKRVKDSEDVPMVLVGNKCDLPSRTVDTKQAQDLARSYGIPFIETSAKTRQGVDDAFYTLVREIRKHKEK
Sequence (P62937 whole entry): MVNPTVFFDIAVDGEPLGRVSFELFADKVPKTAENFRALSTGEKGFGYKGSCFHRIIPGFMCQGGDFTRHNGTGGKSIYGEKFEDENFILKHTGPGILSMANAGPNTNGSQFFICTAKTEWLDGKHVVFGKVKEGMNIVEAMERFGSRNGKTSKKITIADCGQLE
MEASURED QUANTITY: IC50

CCn1c(-c2cccnc2[C@H](C)OC)c2c3cc(ccc31)-c1csc(n1)C[C@H](NC(=O)[C@H](C(C)C)N(C)C(=O)N1CCC3(CC1)CN(C(=O)/C=C/CN1CCCCC1)C3)C(=O)N1CCC[C@H](N1)C(=O)OCC(C)(C)C2 (atropisomer, axis not shown) [Example A670]    1000 to 10000 nM
C=CC(=O)N1CCCN(C(=O)N(C)[C@H](C(=O)N[C@H]2Cc3nc(cs3)-c3ccc4c(c3)c(c(-c3cccnc3[C@H](C)OC)n4CC)CC(C)(C)COC(=O)[C@@H]3CCCN(N3)C2=O)C(C)C)CC1 (atropisomer, axis not shown) [Example A436]    100 to 1000 nM
C=CC(=O)N1CC[C@H](C(=O)N(C)[C@H](C(=O)N[C@H]2Cc3cc(O)cc(c3)-c3ccc4c(c3)c(c(-c3cn(C)nc3[C@H](C)OC)n4CC)CC(C)(C)COC(=O)[C@@H]3CCCN(N3)C2=O)C(C)C)C1 [Example A154]    1000 to 10000 nM
C=CC(=O)N1CC(OC[C@H](C(=O)N[C@H]2Cc3cc(cc(C(F)F)c3)-c3ccc4c(c3)c(c(-c3cccnc3[C@H](C)OC)n4CC)CC(C)(C)COC(=O)[C@@H]3CCCN(N3)C2=O)C(C)C)C1 (atropisomer, axis not shown) [Example A345]    > 10000 nM

* * *

biological target: NRAS G12C (Homo sapiens (Human), UniProt P01111+P62937, G12C); assay: Ras-Raf (BRAF RBD) disruption / FRET / MOA assay, NRAS G12C; assay type: biochemical; details: read-out: IC50* NRAS G12C FRET data
MEASURED QUANTITY: IC50

CCn1c(-c2cccnc2[C@H](C)OC)c2c3cc(ccc31)-c1csc(n1)C[C@H](NC(=O)[C@H](C(C)C)N(C)C(=O)N1CCC3(CC1)CN(C(=O)/C=C/C(F)F)C3)C(=O)N1CCC[C@H](N1)C(=O)OCC(C)(C)C2 (atropisomer, axis not shown) [Example A683]    10 to 100 nM
C=CC(=O)N1CC[C@H](C(=O)N(C)[C@H](C(=O)N[C@H]2Cc3cccc(c3)-c3ccc4c(c3)c(c(-c3cccnc3[C@H](C)OC)n4CC)CC(C)(C)COC(=O)[C@@H]3CCCN(N3)C2=O)C(C)(C)F)C1 (atropisomer, axis not shown) [Example A693]    100 to 1000 nM
C=CC(=O)N1CCOC2(CCN(C(=O)N(C)[C@H](C(=O)N[C@H]3Cc4cc(CF)cc(c4)-c4ccc5c(c4)c(c(-c4cccnc4[C@H](C)OC)n5CC(F)(F)F)CC(C)(C)COC(=O)[C@@H]4CCCN(N4)C3=O)C(C)C)CC2)C1 (atropisomer, axis not shown) [Example A605]    100 to 1000 nM
CO[C@@H](C)c1ncccc1-c1c2c3cc(ccc3n1CC(F)(F)F)-c1cc(CF)cc(c1)C[C@H](NC(=O)[C@@H](COC1CN(C(=O)C#CC(C)(C)N(C)C)C1)C(C)C)C(=O)N1CCC[C@H](N1)C(=O)OCC(C)(C)C2 (atropisomer, axis not shown) [Example A589]    10 to 100 nM
CCn1c(-c2cccnc2[C@H](C)OC)c2c3cc(ccc31)-c1csc(n1)C[C@H](NC(=O)[C@H](C(C)C)N(C)C(=O)N1CCN(C(=O)C#CC(C)(C)N(C)C)CC1)C(=O)N1CCC[C@H](N1)C(=O)OCC(C)(C)C2 (atropisomer, axis not shown) [Example A479]    < 10 nM
C=C(C)C(=O)N1CC2(CCN(C(=O)N(C)[C@H](C(=O)N[C@H]3Cc4nc(cs4)-c4ccc5c(c4)c(c(-c4cccnc4[C@H](C)OC)n5CC)CC(C)(C)COC(=O)[C@@H]4CCCN(N4)C3=O)C(C)C)CC2)C1 (atropisomer, axis not shown) [Example A651]    10 to 100 nM
CCn1c(-c2cccnc2[C@H](C)OC)c2c3cc(ccc31)-c1cccc(c1)C[C@H](NC(=O)[C@H](C(C)C)N1CC[C@@]3(CCN(C(=O)C#C[C@@H]4COCCN4C4COC4)C3)C1=O)C(=O)N1CCC[C@H](N1)C(=O)OCC(C)(C)C2 [Example A566]    10 to 100 nM
C=CC(=O)N1CC[C@H](C(=O)N(C)[C@H](C(=O)N[C@H]2Cc3cc(F)cc(c3)-c3ccc4c(c3)c(c(-c3cccnc3[C@H](C)OC)n4CC)CC(C)(C)COC(=O)[C@@H]3CCCN(N3)C2=O)C(C)C)C1 (atropisomer, axis not shown) [Example A342]    100 to 1000 nM
C=CC(=O)N1CC[C@H](C(=O)N(C)[C@H](C(=O)N[C@H]2Cc3nc(cs3)-c3ccc4c(c3)c(c(-c3cccnc3[C@H](C)OC)n4CC(F)(F)F)CC(C)(C)COC(=O)[C@@H]3CCCN(N3)C2=O)C(C)C)C1 (atropisomer, axis not shown) [Example A502]    100 to 1000 nM
C=CC(=O)N1C[C@H]2CN(C(=O)N(C)[C@H](C(=O)N[C@H]3Cc4nc(cs4)-c4ccc5c(c4)c(c(-c4cccnc4[C@H](C)OC)n5CC)CC(C)(C)COC(=O)[C@@H]4CCCN(N4)C3=O)C(C)C)[C@H]2C1 (atropisomer, axis not shown) [Example A686]    10 to 100 nM
CC#CC(=O)N1CC[C@@]2(CCN([C@H](C(=O)N[C@H]3Cc4cccc(c4)-c4ccc5c(c4)c(c(-c4cccnc4[C@H](C)OC)n5CC)CC(C)(C)COC(=O)[C@@H]4CCCN(N4)C3=O)C(C)C)C2=O)C1 (atropisomer, axis not shown) [Example A426]    1000 to 10000 nM
CCn1c(-c2cccnc2[C@H](C)OC)c2c3cc(ccc31)-c1cc(O)cc(c1)C[C@H](NC(=O)[C@H](C(C)C)N(C)C(=O)c1ncc(NC(=O)/C=C/CN(C)C)n1C)C(=O)N1CCC[C@H](N1)C(=O)OCC(C)(C)C2 [Example A529]    < 10 nM
CCn1c(-c2cccnc2[C@H](C)OC)c2c3cc(ccc31)-c1cc(O)cc(c1)C[C@H](NC(=O)[C@H](C(C)C)N(C)C(=O)N1CCN(C(=O)/C=C/CN(C)C)CC1)C(=O)N1CCC[C@H](N1)C(=O)OCC(C)(C)C2 (atropisomer, axis not shown) [Example A263]    10 to 100 nM
C=CC(=O)Nc1cnc(C(=O)N(C)[C@H](C(=O)N[C@H]2Cc3cc(O)cc(c3)-c3ccc4c(c3)c(c(-c3cccnc3[C@H](C)OC)n4CC)CC(C)(C)COC(=O)[C@@H]3CCCN(N3)C2=O)C(C)C)n1C (atropisomer, axis not shown) [Example A255]    < 10 nM
C=CC(=O)N1CC[C@H](C(=O)N(C)[C@H](C(=O)N[C@H]2Cc3cc(O)cc(c3)-c3ccc4c(c3)c(c(-c3cn(C)cn3)n4CC)CC(C)(C)COC(=O)[C@@H]3CCCN(N3)C2=O)C(C)C)C1 [Example A113]    100 to 1000 nM
